molecular target: Vascular endothelial growth factor receptor 2 (Homo sapiens, UniProt P35968)
Sequence (P35968 whole entry): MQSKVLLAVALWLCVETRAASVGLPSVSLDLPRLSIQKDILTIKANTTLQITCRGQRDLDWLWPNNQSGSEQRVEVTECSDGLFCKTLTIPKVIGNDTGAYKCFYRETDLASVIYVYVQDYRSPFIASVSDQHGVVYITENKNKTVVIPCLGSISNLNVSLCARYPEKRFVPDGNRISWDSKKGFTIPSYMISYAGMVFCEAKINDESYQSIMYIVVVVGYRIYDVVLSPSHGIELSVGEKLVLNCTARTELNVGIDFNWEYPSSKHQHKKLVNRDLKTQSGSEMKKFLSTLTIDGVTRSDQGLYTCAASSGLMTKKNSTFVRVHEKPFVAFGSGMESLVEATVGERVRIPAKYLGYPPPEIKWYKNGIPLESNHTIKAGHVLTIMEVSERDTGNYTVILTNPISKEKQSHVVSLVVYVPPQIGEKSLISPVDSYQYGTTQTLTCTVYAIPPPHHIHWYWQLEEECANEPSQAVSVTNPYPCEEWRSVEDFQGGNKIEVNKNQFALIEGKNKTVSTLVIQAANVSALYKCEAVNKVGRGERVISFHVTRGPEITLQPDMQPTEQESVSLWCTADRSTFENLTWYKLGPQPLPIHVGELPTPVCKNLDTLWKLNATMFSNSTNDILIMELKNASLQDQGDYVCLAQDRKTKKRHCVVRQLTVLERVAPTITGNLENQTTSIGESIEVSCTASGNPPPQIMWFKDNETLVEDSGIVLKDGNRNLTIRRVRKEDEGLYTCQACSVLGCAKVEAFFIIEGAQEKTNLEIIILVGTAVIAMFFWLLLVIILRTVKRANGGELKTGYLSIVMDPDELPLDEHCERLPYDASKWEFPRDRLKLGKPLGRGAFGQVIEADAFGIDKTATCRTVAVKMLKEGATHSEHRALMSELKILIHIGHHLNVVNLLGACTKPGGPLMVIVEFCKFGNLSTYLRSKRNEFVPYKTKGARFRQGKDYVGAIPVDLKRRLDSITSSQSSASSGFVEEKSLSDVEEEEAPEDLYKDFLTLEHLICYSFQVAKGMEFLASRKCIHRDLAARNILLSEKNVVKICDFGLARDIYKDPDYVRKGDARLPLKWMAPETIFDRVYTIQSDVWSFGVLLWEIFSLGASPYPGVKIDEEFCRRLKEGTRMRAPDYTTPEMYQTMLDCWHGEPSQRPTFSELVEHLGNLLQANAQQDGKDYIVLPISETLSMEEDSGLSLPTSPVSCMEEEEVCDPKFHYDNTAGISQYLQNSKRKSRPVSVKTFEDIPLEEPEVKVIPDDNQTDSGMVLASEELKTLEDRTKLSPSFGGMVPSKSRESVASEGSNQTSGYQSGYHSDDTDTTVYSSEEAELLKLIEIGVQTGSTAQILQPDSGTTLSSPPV
measurementLabel: IC50 (nM)
Provide only the numeric value, understood in nM.

Name the value of IC50 reported for Clc1ccc(Nc2nnc(-c3cccc4cnccc34)c3ccccc23)cc1 when tested on Vascular endothelial growth factor receptor 2 (Homo sapiens, UniProt P35968). 48
